- Measured On: MAP3K14 (human) (UniProt Q99558)
- Sequence (Q99558 whole entry, looked up): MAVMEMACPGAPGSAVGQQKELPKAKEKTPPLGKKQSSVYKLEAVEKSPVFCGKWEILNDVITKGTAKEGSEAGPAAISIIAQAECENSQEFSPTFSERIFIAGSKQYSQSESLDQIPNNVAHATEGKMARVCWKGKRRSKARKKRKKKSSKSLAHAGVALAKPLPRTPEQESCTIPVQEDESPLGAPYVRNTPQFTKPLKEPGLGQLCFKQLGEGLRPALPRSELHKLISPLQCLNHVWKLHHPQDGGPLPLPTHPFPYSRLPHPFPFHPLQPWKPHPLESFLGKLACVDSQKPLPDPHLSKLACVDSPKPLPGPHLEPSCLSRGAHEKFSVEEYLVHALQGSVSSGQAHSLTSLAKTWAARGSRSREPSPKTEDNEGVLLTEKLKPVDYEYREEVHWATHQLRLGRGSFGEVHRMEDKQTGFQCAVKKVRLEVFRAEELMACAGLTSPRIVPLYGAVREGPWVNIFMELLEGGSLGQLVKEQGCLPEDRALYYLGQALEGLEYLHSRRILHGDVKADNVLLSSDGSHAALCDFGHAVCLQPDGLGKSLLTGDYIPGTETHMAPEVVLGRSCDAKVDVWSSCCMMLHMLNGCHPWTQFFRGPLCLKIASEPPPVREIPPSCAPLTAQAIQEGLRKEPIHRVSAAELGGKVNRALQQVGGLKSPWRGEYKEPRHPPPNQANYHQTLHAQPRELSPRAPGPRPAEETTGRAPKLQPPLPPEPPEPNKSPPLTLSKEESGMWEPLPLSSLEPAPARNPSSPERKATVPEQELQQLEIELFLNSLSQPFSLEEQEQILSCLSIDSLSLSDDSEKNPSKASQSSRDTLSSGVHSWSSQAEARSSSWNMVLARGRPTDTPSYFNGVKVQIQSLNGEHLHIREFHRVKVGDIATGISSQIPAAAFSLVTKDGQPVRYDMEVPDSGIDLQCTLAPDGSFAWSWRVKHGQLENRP
- Assay Text: radiometric filter-binding kinase assay, Kinase HotSpot
- Measurement Conditions: compound 0.5 µM; ATP 10 µM
The following compounds are shown together with reported residual activity values.
Please make sure the unit comes right after the number.

Below are worked cases with known answers.
# Compound Structure, Measured On, residual activity
data = [
    ("Nc1cccc(-c2cc3c(Oc4cccc(O)c4)ncnc3[nH]2)c1", "MAP3K14 (human) (UniProt Q99558)", "69.6%"),
    ("O=C1NC(=O)c2c1c1c3ccccc3n3c1c1c2c2ccccc2n1C1CCC3O1", "MAP3K14 (human) (UniProt Q99558)", "134%"),
    ("COc1ccc2c(c[n+](C)c3c4cc5c(cc4ccc23)OCO5)c1OC", "MAP3K14 (human) (UniProt Q99558)", "88.1%"),
]

Now turn to the next compound.
[Q] Provide measured residual activity value, entry: N#CC(C#N)=C(N)/C(C#N)=C/c1ccc(O)cc1
[A] 108%

====

- Measured On: GSG2 (human)
- Assay Text: radiometric filter-binding kinase assay, Kinase HotSpot
- Measurement Conditions: compound 0.5 µM; ATP 10 µM
Quantity Measured: residual activity (%)
Please respond with the number in % and leave the unit unwritten.

Below are worked cases with known answers.
# Compound Structure, Measured On, Quantity Measured, Recorded Value
records = [
    ("Cc1ccc(Nc2nccc(N(C)c3ccc4c(C)n(C)nc4c3)n2)cc1S(N)(=O)=O", "GSG2 (human)", "residual activity", 90.4),
    ("Nc1ncnc2[nH]nc(Nc3ccc(F)cc3)c12", "GSG2 (human)", "residual activity", 87.7),
    ("c1ccc(-c2n[nH]cc2-c2ccnc3ccccc23)nc1", "GSG2 (human)", "residual activity", 90.8),
]

[Q] Provide measured residual activity value, entry: CNc1cc2c(Nc3cccc(Br)c3)ncnc2cn1
[A] 91.8

====

- Measured On: CDC42BPA (human)
- Assay Text: radiometric filter-binding kinase assay, Kinase HotSpot
- Measurement Conditions: compound 0.5 µM; ATP 10 µM
Quantity Measured: residual activity (%)
Please respond with the number in % and leave the unit unwritten.

# Compound Structure, Measured On, residual activity (%)
data = [
    ("c1ccc(-c2n[nH]c3c2oc2ccccc23)cc1", "CDC42BPA (human)", 87.4),
    ("Nc1cccc(-c2cc3c(Oc4cccc(O)c4)ncnc3[nH]2)c1", "CDC42BPA (human)", 87.7),
]

Now turn to the next molecule.
[Q] Provide measured residual activity value, entry: CCN(CC)CCNC(=O)c1c(C)[nH]c(/C=C2\C(=O)Nc3ccc(F)cc32)c1C
[A] 89.5

====

The following molecules are shown together with reported residual activity values.
- Measured On: UniProtKB Q07912
- Sequence (Q07912 whole entry, looked up): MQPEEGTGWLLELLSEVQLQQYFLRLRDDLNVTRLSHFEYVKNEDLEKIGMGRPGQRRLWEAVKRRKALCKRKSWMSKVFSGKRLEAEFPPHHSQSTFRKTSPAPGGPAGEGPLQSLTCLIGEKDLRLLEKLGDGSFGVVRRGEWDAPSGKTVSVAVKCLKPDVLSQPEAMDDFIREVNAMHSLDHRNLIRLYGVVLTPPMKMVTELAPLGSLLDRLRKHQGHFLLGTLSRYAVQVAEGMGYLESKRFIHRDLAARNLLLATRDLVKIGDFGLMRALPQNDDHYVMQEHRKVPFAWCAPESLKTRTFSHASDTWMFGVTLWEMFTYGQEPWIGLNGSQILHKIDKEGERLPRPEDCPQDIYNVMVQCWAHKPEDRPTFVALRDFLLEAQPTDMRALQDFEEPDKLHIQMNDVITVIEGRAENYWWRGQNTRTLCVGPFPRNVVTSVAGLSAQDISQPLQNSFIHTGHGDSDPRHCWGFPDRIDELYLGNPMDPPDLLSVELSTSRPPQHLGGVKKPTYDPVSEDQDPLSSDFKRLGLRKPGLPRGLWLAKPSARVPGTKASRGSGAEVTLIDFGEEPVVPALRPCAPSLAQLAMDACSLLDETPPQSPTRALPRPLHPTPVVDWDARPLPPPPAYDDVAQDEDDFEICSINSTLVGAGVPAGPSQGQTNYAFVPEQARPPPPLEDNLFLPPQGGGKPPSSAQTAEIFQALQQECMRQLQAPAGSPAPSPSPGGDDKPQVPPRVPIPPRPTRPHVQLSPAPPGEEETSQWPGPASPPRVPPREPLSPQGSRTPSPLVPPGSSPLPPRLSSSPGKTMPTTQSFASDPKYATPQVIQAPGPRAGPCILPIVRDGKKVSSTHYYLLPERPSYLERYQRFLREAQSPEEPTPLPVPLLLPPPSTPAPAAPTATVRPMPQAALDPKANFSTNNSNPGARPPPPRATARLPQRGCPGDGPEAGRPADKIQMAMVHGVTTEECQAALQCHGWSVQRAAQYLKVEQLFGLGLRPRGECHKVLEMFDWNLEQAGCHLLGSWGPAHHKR
- Assay Text: radiometric filter-binding kinase assay, Kinase HotSpot
- Measurement Conditions: compound 0.5 µM; ATP 10 µM
Please respond with the number in % and leave the unit unwritten.

# Molecule, Recorded Value
data = [
    ("O=C(Nc1cccc(Nc2nccc(Nc3cccc(C(F)(F)F)c3)n2)c1)C1CC1", 66.5),
]

[Q] Report value only: residual activity, UniProtKB Q07912, CC#CC(=O)Nc1cc2c(Nc3ccc(F)c(Cl)c3)ncnc2cn1
[A] 95.1

[Q] Report value only: residual activity, UniProtKB Q07912, Cc1ccc(S(=O)(=O)/C=C/C#N)cc1
[A] 94.9
